Literature pIC50 values, system: ROCK2 (Homo sapiens).
pIC50: −log10 of the molar value.

compound | pIC50
Cc1c(C(=O)N[C@H]2C[C@]3(C2)C[C@H](Oc2nn4ccccc4c2C(N)=O)C3)cnn1-c1ccc(Cl)cc1 (stereo partly shown) | 6.45
COc1cccc(C(C)N2C(=O)N(c3ccc(-c4cn[nH]c4)cc3)C[C@@H]2CO)c1 (single isomer, unassigned) | 7.70 to 8.68
[H][C@]1(c2n[nH]c(=O)c3ccccc32)C[C@]2(C[C@@H](NC(=O)c3cnc4cc(SC)ccn34)C2)C1 (stereo partly shown) | 8.70 to 9.70

Pending compound:
Kindly note: ROCK2 (Homo sapiens), COc1cccc(CCC(=O)N2CCc3cc(-c4c[nH]nc4N)c(F)cc32)c1 , pIC50 value reported: 5.30 to 6.30

====

Literature pIC50 values, system: ROCK2 (Homo sapiens, UniProt O75116).
Answer as the number alone; pIC50 is minus log10 of concentration in mol/L.

Kindly note: ROCK2 (Homo sapiens, UniProt O75116), NC(=O)c1cn(C2CC2)nc1O[C@H]1C[C@@]2(C[C@H](NC(=O)c3nc(C(F)(F)F)n4cc(-c5ccc(F)nc5)ccc34)C2)C1 (stereo partly drawn) , pIC50 value reported: 8.28

Kindly note: ROCK2 (Homo sapiens, UniProt O75116), NC(=O)c1cccnc1Oc1ccc(CC(=O)Nc2nc3ccccc3n2CC(F)F)cc1F , pIC50 value reported: 7.43

Kindly note: ROCK2 (Homo sapiens, UniProt O75116), O=C(c1cc2ccc(-c3nccc(Nc4ccc(-c5cn[nH]c5)cc4)n3)cc2[nH]1)N1CCOC[C@H]1CO , pIC50 value reported: 6.56

Kindly note: ROCK2 (Homo sapiens, UniProt O75116), Cc1c(C(=O)N[C@H]2C[C@]3(C2)C[C@H](Oc2nc(C4CC4)sc2C(N)=O)C3)cnn1-c1ccc(C#N)cc1 (stereo partly drawn) , pIC50 value reported: 7.60

Kindly note: ROCK2 (Homo sapiens, UniProt O75116), N#Cc1ccc2c(c1)CN(c1nccc(Nc3ccc4[nH]ncc4c3)n1)C2 , pIC50 value reported: 6.91

Kindly note: ROCK2 (Homo sapiens, UniProt O75116), N#Cc1ccc(-c2cnc(N[C@H]3CC4(C3)C[C@H](Oc3ncccc3C(N)=O)C4)nc2)cc1 (stereo partly drawn) , pIC50 value reported: 6.98

Kindly note: ROCK2 (Homo sapiens, UniProt O75116), O=C(c1cc2ccc(-c3nccc(Nc4ccc(-c5cn[nH]c5)cc4)n3)cc2[nH]1)N1CCC(C(F)(F)F)C1 (stereo not drawn) , pIC50 value reported: 7.49

Kindly note: ROCK2 (Homo sapiens, UniProt O75116), CN(C)CCc1ccc(NC(=O)c2cccc([C@@H](CO)NC(=O)c3ccc(-c4ccncc4)cc3)c2)cc1 , pIC50 value reported: 8.92

Kindly note: ROCK2 (Homo sapiens, UniProt O75116), Cc1cc(CCO[N+](=O)[O-])ccc1C(=O)OCc1ccc([C@@H](CN)C(=O)Nc2cc3ccncc3s2)cc1 , pIC50 value reported: 8.26

Kindly note: ROCK2 (Homo sapiens, UniProt O75116), CN1CCN(c2ccc(C(=O)N3CCC4(CC3)CCN(c3cccc(-c5cn[nH]c5)c3)C4=O)cc2)CC1 , pIC50 value reported: 5.96

Kindly note: ROCK2 (Homo sapiens, UniProt O75116), C=C[C@@H](NC(=O)c1ccc(-c2cn[nH]c2)c(OC)c1)c1c(F)cccc1F , pIC50 value reported: 7.98

Kindly note: ROCK2 (Homo sapiens, UniProt O75116), [H][C@]1(Oc2ncccc2C(N)=O)C[C@]2(C[C@@H](Nc3ccnc(-c4cccc(C(=O)N(C)C)c4)n3)C2)C1 (stereo partly drawn) , pIC50 value reported: 5.93

Kindly note: ROCK2 (Homo sapiens, UniProt O75116), Cn1c(C(=O)N2C[C@@H](F)[C@H](Br)C2)cc2ccc(-c3nccc(Nc4ccc(-c5cn[nH]c5)cc4)n3)cc21 , pIC50 value reported: 6.99

Kindly note: ROCK2 (Homo sapiens, UniProt O75116), COc1cccc(CNC(=O)c2cccc(-c3ccc4[nH]ncc4c3)c2)c1 , pIC50 value reported: 8.52

Kindly note: ROCK2 (Homo sapiens, UniProt O75116), COc1ccn2nc(NC(=O)Cc3ccc(Oc4ncccc4C(N)=O)c(Cl)c3)nc2c1 , pIC50 value reported: 7.92

====

Literature IC50 values, system: ROCK2 (Homo sapiens, UniProt O75116).

Worked examples follow.
compound | observed
CCc1cc(-n2nc(C)n(Cc3cc(F)cc(OC)c3)c2=O)ccc1-c1cn[nH]c1 | 5 to 50 nM
COc1cccc(CN2C(=O)N(c3ccc(-c4cn[nH]c4)cc3)CC2CO)c1 (racemic) | < 2 nM
O=C(NC1CCC1)c1cccc(CN2C(=O)N(c3ccc(-c4cn[nH]c4)cc3)CC23CCOCC3)c1 | < 3 nM
NC(=O)c1cccnc1O[C@H]1C[C@@]2(C[C@H](Nc3nc4c(F)cccc4o3)C2)C1 (stereo partly drawn) | 110 nM
COc1cccc(CN2C(=O)N(c3ccc(-c4cn[nH]c4)cc3)CC2C(C)(C)O)c1 (single isomer, unassigned; (+)) | < 2 nM
O=C(NC1CCCCC1)c1cccc([C@@H](CO)NC(=O)c2ccc(-c3ccncc3)cc2)c1 | 1.5 nM
Cn1cc(-c2ccc3sc(NC(=O)Cc4ccc(Oc5ncccc5C(N)=O)c(F)c4)nc3c2)c(C2CC2)n1 | 8 nM
O=C1N(c2ccc(-c3cn[nH]c3)cc2)CC2(CCNCC2)N1Cc1cccc(F)c1F | 3 to 30 nM

Entry COc1cc(Cn2c(C(C)O)nn(-c3ccc(-c4cn[nH]c4)cc3)c2=O)cc(OC)c1 (single isomer, unassigned) , IC50 reported as 50 to 250 nM

Entry O=C(CCc1ccccc1)Nc1ccc2c(c1)OCc1cnccc1-2 , IC50 reported as 40.4 nM

Entry COc1cccc(NC2C(=O)N(c3ccc(-c4cn[nH]c4)cc3)CC23CN(C(=O)OC(C)(C)C)C3)c1 (stereo not drawn) , IC50 reported as 30 to 250 nM

Entry CCOC(=O)OCCOc1cccc(CN2CC[C@@H](Nc3cccc4cnccc34)C2)c1 , IC50 reported as 369 nM

Entry [H][C@]1(c2n[nH]c(=O)c3ccccc32)C[C@]2(C[C@@H](NC(=O)c3ccc(-c4nn[nH]n4)cc3)C2)C1 (stereo partly drawn) , IC50 reported as 100 to 2100 nM

Entry [H][C@]1(c2n[nH]c(=O)c3ccccc32)C[C@]2(C[C@@H](NC(=O)c3ccc4c(c3)ncn4C(C)C)C2)C1 (stereo partly drawn) , IC50 reported as 5.1 to 15 nM

Entry O=c1n(Cc2cc(F)cc(OCC3CC3)c2)ccn1-c1ccc(-c2cn[nH]c2)cc1 , IC50 reported as 20.1 to 200 nM

====

Literature IC50 values, system: ROCK2 (Homo sapiens, UniProt O75116).

compound | IC50
COc1cccc(C(CN)NC(=O)c2cccc(-c3ccc4[nH]nc(C)c4c3)c2)c1 (centres unmarked) | 3 nM
COC(=O)N1CCC(CNC(=O)c2cccc([C@@H](CO)NC(=O)c3ccc(-c4ccncc4)cc3)c2)CC1 | 0.57 nM
CC(NC(=O)c1ccc(-c2ccncc2)cc1)c1cccc(OCC(=O)Nc2ccc3c(c2)CN(C)CC3)c1 (centres unmarked) | 3.6 nM
COc1cccc(CN2C(=O)N(c3ccc(-c4cn[nH]c4)cc3)CC23CCN(C(=O)C(C)O)CC3)c1 (centres unmarked) | < 3 nM

Kindly note: ROCK2 (Homo sapiens, UniProt O75116), COc1cc(CN2CCN(c3cc(F)c(-c4cn[nH]c4)cc3F)C2=O)ccc1F , IC50 value reported: 20.1 to 200 nM

====

pIC50: −log10 of the molar value.
Literature pIC50 values, system: ROCK2 (Homo sapiens, UniProt O75116).
Response key: fulfilled means pIC50 >= 7; not fulfilled means pIC50 < 7.

Here's what some known entries look like.
compound | class_label
COc1ccc(C(=O)N2CCC3(CC2)CCN(c2ccc(-c4cn[nH]c4)c(OC)c2)C3=O)cc1 | fulfilled
Cn1c(C(=O)N2CC(F)(F)C2)cc2ccc(-c3nc(Nc4ccc(-c5cn[nH]c5)cc4)c4ccccc4n3)cc21 | not fulfilled
Cc1c(C(=O)N[C@H]2C[C@]3(C2)C[C@H](Oc2nc4c(cnn4C)cc2C(N)=O)C3)cnn1-c1ccc(C#N)cc1 (stereo partly shown) | fulfilled

Kindly review the next compound as well.
input: Does the compound Cc1nn(C)cc1-c1ccc2sc(NC(=O)Cc3ccc(Oc4ncccc4C(N)=O)c(F)c3)nc2c1 have recorded pIC50 that is 7 or more?
output: fulfilled

====

Literature pIC50 values, system: ROCK2 (Homo sapiens, UniProt O75116).
Answer as the number alone; pIC50 is minus log10 of concentration in mol/L.

Entry COc1cc(C(=O)N[C@H](C)c2ccccc2Cl)ccc1-c1cn[nH]c1 , pIC50 reported as 8.88

Entry COc1cc(N2CCC3(CCN(C(=O)c4ccc5c(c4)nnn5C)CC3)C2=O)ccc1-c1cn[nH]c1 , pIC50 reported as 8.04

Entry COc1cccc(C(CN)NC(=O)c2cc(-c3ccc4[nH]nc(C)c4c3)cc3c2CNC3)c1 (stereo not shown) , pIC50 reported as 7.80
